- Test system: M19-MEL
- method.notes: NCI tumour cell line growth inhibition, 48 h
Calls of active or inactive are those of the source. No stated cut-off is given here; in the data, active = GI50 up to about 1.1 µM and inactive = higher.
recorded.endpoint: GI50

Query :: Reported GI50, compound Cc1cc(C(=O)N2CCN(Cc3ccccc3)CC2)c(C)o1 : ____
Result :: > 100 µM (inactive)

Query :: Reported GI50, compound CCOC(=O)C(=O)Nc1nc2ccc(OC)cc2s1 : ____
Result :: > 100 µM (inactive)

Query :: Reported GI50, compound CCCN(CCC)C1CC(n2cc(C)c(=O)[nH]c2=O)OC1CO (stereo not drawn) : ____
Result :: > 100 µM (inactive)

====

- Test system: SF-539
- method.notes: NCI tumour cell line growth inhibition, 48 h
Calls of active or inactive are those of the source. No stated cut-off is given here; in the data, active = GI50 up to about 1.1 µM and inactive = higher.
recorded.endpoint: GI50

Query :: Write down the reported GI50 of Brc1ccc(C2CC(c3cccc4ccccc34)=Nc3ccccc3S2)cc1 (stereo unspecified) , test system: SF-539.
Result :: > 100 µM (inactive)

Query :: Write down the reported GI50 of COc1ccc(/C=N/N=C(\N)NO)c(OC)c1 , test system: SF-539.
Result :: 23.3 µM (inactive)

Query :: Write down the reported GI50 of CC(=O)O[C@H]1[C@@H](OC2CCCC2(c2ccccc2)c2ccccc2)O[N+]([O-])=C[C@@]12COCc1cc3c(cc12)OCO3 (stereo partly specified) , test system: SF-539.
Result :: 93.3 µM (inactive)

Query :: Write down the reported GI50 of COC(=O)Cc1c(C(=O)CC(C)(C)n2cnc(CCN3C(=O)CCC3=O)c2)[nH]c2ccccc12 , test system: SF-539.
Result :: > 100 µM (inactive)

Query :: Write down the reported GI50 of c1ccc(CN2COc3c(ccc4c5c(ccc34)CN(Cc3ccccc3)CO5)C2)cc1 , test system: SF-539.
Result :: > 100 µM (inactive)

Query :: Write down the reported GI50 of Nc1nc(Nc2ccccc2)sc1C(=O)c1cccs1 , test system: SF-539.
Result :: 10.7 µM (inactive)

Query :: Write down the reported GI50 of O=C(c1cc(O)ccc1O)c1ccccc1C(Cl)(Cl)Cl , test system: SF-539.
Result :: > 100 µM (inactive)

Query :: Write down the reported GI50 of COCC(O)CN1C(N)=NC(O)C1O (stereo unspecified) , test system: SF-539.
Result :: > 100 µM (inactive)

Query :: Write down the reported GI50 of N#CC(C#N)=C1NN=C(Cl)c2ccccc21 , test system: SF-539.
Result :: 85.5 µM (inactive)

Query :: Write down the reported GI50 of CN(C)CCNC(=O)c1cc([N+](=O)[O-])ccn1 , test system: SF-539.
Result :: 22.8 µM (inactive)

Query :: Write down the reported GI50 of COc1ccc(/C=[N+](\[O-])[C@H](COCc2ccccc2)c2ccccc2)cc1 , test system: SF-539.
Result :: > 100 µM (inactive)

====

- Test system: EKVX
- method.notes: NCI tumour cell line growth inhibition, 48 h
Activity calls are given as the source filed them. Cut-off read from the data, not from the text of the source: active = GI50 up to about 1.1 µM and inactive = higher.
Parameter call: string, one of 1 (yes) for active, 0 (no) for inactive

Query :: Could you check what this test reported for CCOc1ccc2c(c1)c(=O)c1c(NCCN(CC)CC)ccc3nnn2c31 ?
Result :: 0 (no)

Query :: Could you check what this test reported for C[N+](C)(C)CC(=O)N/N=C(/CC(=O)CC(C1=C(O)c2ccccc2OC1)c1ccccc1)C(=O)Nc1cccc(Cl)c1 (stereo not given) ?
Result :: 0 (no)

Query :: Could you check what this test reported for CN1CCN(c2ccc3nc(C4=C(O)C(=O)c5c(nc(CCl)n5C)C4=O)[nH]c3n2)CC1 ?
Result :: 0 (no)

Query :: Could you check what this test reported for CC(=O)Nc1ccc(/C=C/C(=O)N2CC(CCl)c3c2cc(N)c2ccccc32)cc1 (stereo not given) ?
Result :: 1 (yes)

Query :: Could you check what this test reported for O=C1C2C(C(=O)N1OS(=O)(=O)c1ccccc1)N(Cc1ccccc1)C(=O)N2Cc1ccccc1 (stereo not given) ?
Result :: 0 (no)

Query :: Could you check what this test reported for CN(CC(=O)O)S(=O)(=O)c1ccc(F)cc1 ?
Result :: 0 (no)

Query :: Could you check what this test reported for COc1cccc(NC(=O)CC(=O)N2N=C(N(CCC#N)c3ccc(Cl)cc3)CC2c2ccccc2)c1 (stereo not given) ?
Result :: 0 (no)

Query :: Could you check what this test reported for COc1cc(/C=C\c2ccncc2)cc(OC)c1OC ?
Result :: 0 (no)

Query :: Could you check what this test reported for Cn1c(CCC#N)nc2ccc(Br)cc2c1=O ?
Result :: 0 (no)

Query :: Could you check what this test reported for Brc1ccc(C2CC(c3cccc4ccccc34)=Nc3ccccc3S2)cc1 (stereo not given) ?
Result :: 0 (no)

====

Can you tell me GI50 for the items I'm about to list?
- Test system: MOLT-4
- method.notes: NCI tumour cell line growth inhibition, 48 h
Active and inactive are the calls of the source. No stated cut-off is given here; in the data, active = GI50 up to about 1.1 µM and inactive = higher.

Query :: Reported GI50, compound C[N+]12C=CC=C1C(N1CCCC1)c1scc(-c3ccccc3)c12 (stereo not given) : ____
Result :: 19.3 µM (inactive)

Query :: Reported GI50, compound CC1(C)C=Cc2c(cc(O)c3c(=O)c4cc(Cl)ccc4[nH]c23)O1 : ____
Result :: 2.54 µM (inactive)

Query :: Reported GI50, compound CC(C)[Si](OC1=C(c2ccccc2)C(NC(=O)/C=C/c2ccc([N+](=O)[O-])cc2)CCC1)(C(C)C)C(C)C (stereo not given) : ____
Result :: > 100 µM (inactive)

Query :: Reported GI50, compound COc1ccc(O)c2c(=O)ccccc12 : ____
Result :: > 100 µM (inactive)

Query :: Reported GI50, compound C/C(=N\NC(=S)NCc1ccccc1)c1nc2cccnc2[nH]1 : ____
Result :: 3.44 µM (inactive)

Query :: Reported GI50, compound COc1ccc(N2C(=O)C3CC4=CC(=O)C[C@H]4[C@H]32)cc1 (stereo not given in full) : ____
Result :: > 100 µM (inactive)

Query :: Reported GI50, compound O=C1C[C@@H](C(=O)OCc2ccccc2)NC(=O)C[C@@H](C(=O)OCc2ccccc2)NC(=O)C[C@@H](C(=O)OCc2ccccc2)N1 : ____
Result :: 4.15 µM (inactive)

Query :: Reported GI50, compound CSc1nc2c(c(=O)[nH]1)N=C(c1ccc([N+](=O)[O-])cc1)CC(c1ccccc1)N2 (stereo not given) : ____
Result :: 31.3 µM (inactive)

Query :: Reported GI50, compound CCCCCC/C=C\CCCCCCCCC(=O)c1cccc(OC)c1OC : ____
Result :: 25.7 µM (inactive)

Query :: Reported GI50, compound CC(C)(C)OC(=O)NCCCCCCC(=O)Cc1ccccc1 : ____
Result :: 59 µM (inactive)

====

- System: MDA-MB-435
- method.notes: NCI tumour cell line growth inhibition, 48 h
Active and inactive are the calls of the source. Rule as the data show it: active = GI50 up to about 1.1 µM and inactive = higher.
recorded.endpoint: GI50

Query :: Write down the reported GI50 of CN(CCO)CCC1COc2ccccc2O1 (stereo not drawn) , test system: MDA-MB-435.
Result :: > 10 µM (inactive)

Query :: Write down the reported GI50 of CC(O)CNC(=O)Nc1c(C(F)(F)F)cc(-c2ccccc2)[nH]c1=O (stereo not drawn) , test system: MDA-MB-435.
Result :: > 100 µM (inactive)

Query :: Write down the reported GI50 of CCN1CCC(O)(c2ccc(Oc3ccc(F)cc3)cc2)C(C(=O)c2ccc(Oc3ccc(F)cc3)cc2)C1 (stereo not drawn) , test system: MDA-MB-435.
Result :: 16.8 µM (inactive)

Query :: Write down the reported GI50 of CC1(C)CNC(=O)C2(/C=N/C(C)(C)CNC(=O)C3(/C=N/1)CCCO3)CCCO2 (stereo not drawn) , test system: MDA-MB-435.
Result :: > 10 µM (inactive)

Query :: Write down the reported GI50 of COc1ccc2c3c(c(=O)n(C)c2c1OC)C=CC(C)(C)O3 , test system: MDA-MB-435.
Result :: 38.3 µM (inactive)

Query :: Write down the reported GI50 of CN1CCN(c2ncc3c(n2)sc2c(=O)n(-c4ccccc4)cnc23)CC1 , test system: MDA-MB-435.
Result :: > 100 µM (inactive)

Query :: Write down the reported GI50 of c1ccc(/N=C(\N2CCOCC2)N(CCN2CCOCC2)c2ccccc2)cc1 , test system: MDA-MB-435.
Result :: > 100 µM (inactive)

Query :: Write down the reported GI50 of COc1ccc(/C=C2\N=C3N(Cc4ccccc4)C=C(N)N3C2=O)cc1 , test system: MDA-MB-435.
Result :: > 100 µM (inactive)

====

Can you tell me GI50 for the items I'm about to list?
- Tested on: OVCAR-5
- method.notes: NCI tumour cell line growth inhibition, 48 h
Active and inactive are the calls of the source. No stated cut-off is given here; in the data, active = GI50 up to about 1.1 µM and inactive = higher.

Query :: Write down the reported GI50 of CNc1ncnc2c1cnn2Cc1cn(CCCCO)nn1 , test system: OVCAR-5.
Result :: > 100 µM (inactive)

Query :: Write down the reported GI50 of Clc1cc2nc[nH]c2cc1Cl , test system: OVCAR-5.
Result :: > 100 µM (inactive)

Query :: Write down the reported GI50 of Nc1n[n+]([O-])c2cc([N+](=O)[O-])ccc2[n+]1[O-] , test system: OVCAR-5.
Result :: 21.2 µM (inactive)

Query :: Write down the reported GI50 of O=C1C[C@@H](C(=O)OCc2ccccc2)NC(=O)C[C@@H](C(=O)OCc2ccccc2)NC(=O)C[C@@H](C(=O)OCc2ccccc2)N1 , test system: OVCAR-5.
Result :: > 100 µM (inactive)

Query :: Write down the reported GI50 of CC1CCCc2c1c1ccc3c(O)cccc3c1oc2=O (stereo unspecified) , test system: OVCAR-5.
Result :: 71.8 µM (inactive)

Query :: Write down the reported GI50 of COc1cc(/C=N/c2nncs2)ccc1O , test system: OVCAR-5.
Result :: > 100 µM (inactive)

Query :: Write down the reported GI50 of O=C1c2ccc3c4ccc5c6c(ccc(c7ccc(c2c37)C(=O)N1CCN1CCCCC1)c64)C(=O)N(CCN1CCCCC1)C5=O , test system: OVCAR-5.
Result :: > 100 µM (inactive)

Query :: Write down the reported GI50 of O=c1cccccc1NCCCNc1cccccc1=O , test system: OVCAR-5.
Result :: > 100 µM (inactive)

Query :: Write down the reported GI50 of O=C1C2Nc3ccccc3SC2C(=O)N1c1ccc(Br)cc1 (stereo unspecified) , test system: OVCAR-5.
Result :: > 100 µM (inactive)

Query :: Write down the reported GI50 of N#CCN1CCCN(CC#N)CCN(CC#N)CCCN(CC#N)CC1 , test system: OVCAR-5.
Result :: > 100 µM (inactive)

Query :: Write down the reported GI50 of N#CC(NC12CC3CC(CC(C3)C1)C2)c1ccccc1 (stereo unspecified) , test system: OVCAR-5.
Result :: > 100 µM (inactive)
